# Measurement target: UniProtKB P07333
# Sequence (P07333 20-972): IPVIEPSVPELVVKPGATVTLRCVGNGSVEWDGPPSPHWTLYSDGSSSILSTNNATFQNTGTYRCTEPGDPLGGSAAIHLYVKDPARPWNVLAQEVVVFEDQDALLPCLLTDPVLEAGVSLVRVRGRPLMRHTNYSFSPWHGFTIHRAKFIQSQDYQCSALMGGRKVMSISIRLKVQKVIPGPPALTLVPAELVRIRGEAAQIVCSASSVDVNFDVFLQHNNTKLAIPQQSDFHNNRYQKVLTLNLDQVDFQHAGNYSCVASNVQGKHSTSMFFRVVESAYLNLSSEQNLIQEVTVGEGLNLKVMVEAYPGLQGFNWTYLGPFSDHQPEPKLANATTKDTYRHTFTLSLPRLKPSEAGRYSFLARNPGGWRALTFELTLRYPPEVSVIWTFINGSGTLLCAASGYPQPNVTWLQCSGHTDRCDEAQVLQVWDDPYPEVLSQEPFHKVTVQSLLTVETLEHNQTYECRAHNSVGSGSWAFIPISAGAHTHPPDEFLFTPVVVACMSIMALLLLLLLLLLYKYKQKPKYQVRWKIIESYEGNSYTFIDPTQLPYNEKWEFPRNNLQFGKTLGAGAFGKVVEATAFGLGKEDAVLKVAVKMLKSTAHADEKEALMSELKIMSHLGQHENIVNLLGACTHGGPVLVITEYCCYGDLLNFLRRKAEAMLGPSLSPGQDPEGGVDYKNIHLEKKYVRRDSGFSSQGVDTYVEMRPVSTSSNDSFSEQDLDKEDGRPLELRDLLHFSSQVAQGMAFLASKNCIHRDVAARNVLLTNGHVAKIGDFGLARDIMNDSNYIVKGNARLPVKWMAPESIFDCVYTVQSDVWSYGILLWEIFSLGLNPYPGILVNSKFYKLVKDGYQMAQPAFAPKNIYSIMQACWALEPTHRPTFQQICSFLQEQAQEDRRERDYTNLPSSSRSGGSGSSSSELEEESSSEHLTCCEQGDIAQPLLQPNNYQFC
# Assay procedure: Competition binding assay, CSF1R Kd
# Set-up: made in house
pKd: −log10 of the molar value.
Metric name: pKd

>  <Compound>
O[C@@H]1Cc2ccccc2[C@H]1Nc1nc2ccc(Cn3cnc4cc(Br)cnc43)cc2s1 [Example 42]

>  <Metric name>
pKd

>  <Result>
≥ 8.30

$$$$
>  <Compound>
OC1(CNc2nc3ccc(Cn4cnc5cccnc54)cc3s2)CCCCC1 [Example 75]

>  <Metric name>
pKd

>  <Result>
7.70 to 8.30

$$$$
>  <Compound>
COc1cc2ncn(Cc3ccc4nc(Nc5ccccc5)sc4c3)c2cc1OC [Example 22]

>  <Metric name>
pKd

>  <Result>
7.70 to 8.30

$$$$
>  <Compound>
COc1cc2ncn(Cc3ccc4nc(N[C@@H]5CCCC5O)sc4c3)c2cc1OC (stereo in doubt) [Example 20]

>  <Metric name>
pKd

>  <Result>
7.30 to 7.70

$$$$
>  <Compound>
COc1cc2ncn(Cc3ccc4nc(NC5CCOCC5)sc4c3)c2cc1OC [Example 15]

>  <Metric name>
pKd

>  <Result>
7.30 to 7.70

$$$$
>  <Compound>
COc1cc2ncn(Cc3ccc4nc(NCCN5CCOCC5)sc4c3)c2cc1OC [Example 14]

>  <Metric name>
pKd

>  <Result>
< 7.30

$$$$
>  <Compound>
Cn1cc(-c2cnc3c(c2)ncn3Cc2ccc3nc(N[C@@H]4CCCC[C@H]4O)sc3c2)cn1 [Example 39]

>  <Metric name>
pKd

>  <Result>
≥ 8.30

$$$$
>  <Compound>
CN(C)C(=O)c1cnc2c(c1)ncn2Cc1ccc2nc(N[C@@H]3CCCC[C@H]3O)sc2c1 [Example 92]

>  <Metric name>
pKd

>  <Result>
7.70 to 8.30

$$$$

---

# Measurement target: KIT (Homo sapiens, UniProt P10721)
# Construct: made in house
# Sequence (P10721 26-976): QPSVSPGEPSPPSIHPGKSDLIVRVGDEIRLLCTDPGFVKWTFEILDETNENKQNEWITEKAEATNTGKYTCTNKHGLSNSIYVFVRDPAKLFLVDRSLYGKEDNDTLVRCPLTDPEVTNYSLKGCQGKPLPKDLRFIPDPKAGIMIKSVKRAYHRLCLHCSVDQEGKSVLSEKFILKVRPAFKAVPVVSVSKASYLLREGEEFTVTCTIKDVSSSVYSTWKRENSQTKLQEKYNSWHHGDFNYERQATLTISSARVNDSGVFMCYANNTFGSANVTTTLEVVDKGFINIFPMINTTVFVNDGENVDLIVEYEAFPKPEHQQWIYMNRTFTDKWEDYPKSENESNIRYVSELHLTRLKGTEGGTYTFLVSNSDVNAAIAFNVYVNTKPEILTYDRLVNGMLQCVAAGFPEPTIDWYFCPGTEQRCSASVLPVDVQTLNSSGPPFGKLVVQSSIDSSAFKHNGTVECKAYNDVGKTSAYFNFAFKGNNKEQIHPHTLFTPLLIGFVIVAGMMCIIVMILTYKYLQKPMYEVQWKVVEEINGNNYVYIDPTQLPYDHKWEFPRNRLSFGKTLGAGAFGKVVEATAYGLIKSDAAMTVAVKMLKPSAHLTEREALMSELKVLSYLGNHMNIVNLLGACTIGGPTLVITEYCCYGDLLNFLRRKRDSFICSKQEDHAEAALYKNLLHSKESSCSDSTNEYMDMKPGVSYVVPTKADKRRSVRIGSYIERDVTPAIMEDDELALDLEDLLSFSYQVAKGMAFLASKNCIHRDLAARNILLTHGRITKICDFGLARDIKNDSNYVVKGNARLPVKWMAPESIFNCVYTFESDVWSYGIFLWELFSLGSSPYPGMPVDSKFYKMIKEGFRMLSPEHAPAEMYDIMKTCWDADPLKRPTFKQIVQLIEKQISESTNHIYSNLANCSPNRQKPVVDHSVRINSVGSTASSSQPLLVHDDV
# Assay procedure: Competition binding assay, KIT Kd
# Experimental setup: competition binding
Each entry below carries its reported Kd.
Metric name: Kd

>  <Compound>
CS(=O)(=O)c1ccc2ncn(Cc3ccc4nc(N[C@@H]5CCCC[C@H]5O)sc4c3)c2n1

>  <Measurement target>
KIT (Homo sapiens, UniProt P10721)

>  <Result>
500 to 2000 nM

$$$$
>  <Compound>
COc1ccc2ncc(Cc3ccc4nc(N[C@@H]5CCCC[C@H]5O)sc4c3)n2n1

>  <Measurement target>
KIT (Homo sapiens, UniProt P10721)

>  <Result>
≤ 100 nM

$$$$
>  <Compound>
CS[C@@H]1CCCC[C@H]1Nc1nc2ccc(Cn3cnc4cc(F)cnc43)cc2s1

>  <Measurement target>
KIT (Homo sapiens, UniProt P10721)

>  <Result>
100 to 500 nM

$$$$
>  <Compound>
O[C@@H]1CCCC[C@H]1Nc1nc2ccc(Cc3cnc4cnccn34)cc2s1

>  <Measurement target>
KIT (Homo sapiens, UniProt P10721)

>  <Result>
500 to 2000 nM

$$$$
>  <Compound>
O[C@@H]1[C@H](O)CCC[C@H]1Nc1nc2ccc(Cn3cnc4cc(-n5cncn5)cnc43)cc2s1

>  <Measurement target>
KIT (Homo sapiens, UniProt P10721)

>  <Result>
≤ 100 nM

$$$$
>  <Compound>
Fc1cnc2c(c1)ncn2Cc1ccc2nc(N[C@H]3C=CCCC3)sc2c1

>  <Measurement target>
KIT (Homo sapiens, UniProt P10721)

>  <Result>
100 to 500 nM

$$$$
>  <Compound>
O[C@@H]1CCCC[C@H]1Nc1nc2ccc(Cn3cnc4cc(OC5COC5)ccc43)cc2s1

>  <Measurement target>
KIT (Homo sapiens, UniProt P10721)

>  <Result>
100 to 500 nM

$$$$
>  <Compound>
COc1nc2c(cc1Br)ncn2Cc1ccc2nc(N[C@@H]3CCCC[C@H]3O)sc2c1

>  <Measurement target>
KIT (Homo sapiens, UniProt P10721)

>  <Result>
≤ 100 nM

$$$$
